These measurements were taken from patent US20100280023A1.

target: Rat adenosine A2A receptor (Rattus norvegicus, UniProt P30543); construct: tissue Nippon SLC (animals); host or cells: rat (SD) corpus striatum membrane preparation; experiment: Adenosine A2A receptor binding test (3H-CGS21680 binding, rat corpus striatum membranes); settings: test compound 10^−7 mol/L, 25° C., 120 minutes, read-out: Rat adenosine A2A receptor binding inhibition rate (%) (10^−7 mol/L)
Sequence (P30543 whole entry): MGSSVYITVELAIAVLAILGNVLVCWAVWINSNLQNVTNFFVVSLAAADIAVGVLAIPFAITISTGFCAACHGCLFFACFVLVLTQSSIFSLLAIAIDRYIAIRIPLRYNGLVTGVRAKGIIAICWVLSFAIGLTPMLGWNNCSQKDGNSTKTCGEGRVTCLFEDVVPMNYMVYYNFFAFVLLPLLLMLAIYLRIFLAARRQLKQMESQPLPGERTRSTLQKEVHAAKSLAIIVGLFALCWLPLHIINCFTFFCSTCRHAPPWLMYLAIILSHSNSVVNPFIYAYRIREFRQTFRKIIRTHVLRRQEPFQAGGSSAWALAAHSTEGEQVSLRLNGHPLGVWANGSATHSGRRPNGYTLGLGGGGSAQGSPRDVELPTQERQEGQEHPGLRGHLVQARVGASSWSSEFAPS
Give rule met when the value for inhibition at 0.1 µM is at least 80%. Give rule not met when it is less.

INSERT INTO assay_data (compound, label_value) VALUES
  ('O=C(Nc1ccccc1)c1nc(-c2ccco2)c(C(=O)C2CCOCC2)s1 [Compound 32]', 'rule not met'),
  ('O=C(c1ccccn1)c1sc(-c2nc3c([nH]2)CSCC3)nc1-c1ccco1 [Compound 29]', 'rule met'),
  ('CC(C)CNC(=O)c1nc(-c2ccco2)c(C(=O)C2CCOCC2)s1 [Compound 33]', 'rule not met'),
  ('O=C(c1ccccn1)c1sc(-c2nc3ccccc3[nH]2)nc1-c1ccco1 [Compound 24]', 'rule met'),
  ('COc1ccc(-c2c[nH]c(-c3nc(-c4ccco4)c(C(=O)C4CCOCC4)s3)n2)cc1 [Compound 19]', 'rule not met');
